Kindly state half-life for each of the entries shown.
Test: Half life in male ICR mouse at 2.5 mg/kg, iv measured upto 24 hrs by LC-MS/MS analysis
Assay type: ADME, organism-based
Conditions: in vivo
Field format: number, assumed h, no unit text.

For `COc1cc2c3cc1Oc1c(OC)c(OC)cc4c1[C@H](Cc1ccc(cc1)Oc1cc(ccc1O)C[C@H]3N(C)CC2)N(C)CC4` the molecule record lists half-life as 13.2

The recorded half-life for entry `COc1cc2c3cc1Oc1c(OC)c(OC)cc4c1[C@H](Cc1ccc(cc1)Oc1cc(ccc1C(N)=O)C[C@H]3N(C)CC2)N(C)CC4` equals 17.1

The molecule listed as `COc1cc2c3cc1Oc1c(OC)c(OC)cc4c1[C@H](Cc1ccc(cc1)Oc1cc(ccc1C(=O)NC1CC1)C[C@H]3N(C)CC2)N(C)CC4` has a reported half-life of 21.1

* * *

Please provide measured log10(IC50) for the entries that follow.
Assay: Cytotoxicity against African green monkey Vero E6 cells assessed as cell viability by CCK-8 assay
Type: toxicity, cell-based, Vero C1008
Details: African green monkey (Chlorocebus sabaeus)
Hello, just confirming the data are log10 of IC50 with units of µM.

Memo: `COc1cc2c3cc1Oc1c(OC)c(OC)cc4c1[C@H](Cc1ccc(cc1)Oc1cccc(c1)C[C@H]3N(C)CC2)N(C)CC4` , reported log10(IC50): 1.23

The value of log10(IC50) measured for the compound `COc1cc2c3cc1Oc1c(OC)c(OC)cc4c1[C@H](Cc1ccc(cc1)Oc1cc(ccc1C(N)=O)C[C@H]3N(C)CC2)N(C)CC4` turned out to be 1.80

Value of measured log10(IC50) for the entry `C=C(C)c1ccc2cc1Oc1ccc(cc1)C[C@H]1c3c(cc(OC)c(OC)c3Oc3cc4c(cc3OC)CCN(C)[C@@H]4C2)CCN1C` : 0.79

log10(IC50) reading for `COc1cc2c3cc1Oc1c(OC)c(OC)cc4c1[C@H](Cc1ccc(cc1)Oc1cc(ccc1C(=O)NC1CC1)C[C@H]3N(C)CC2)N(C)CC4` : 1.79

The compound listed as `COc1cc2c3cc1Oc1c(OC)c(OC)cc4c1[C@H](Cc1ccc(cc1)Oc1cc(ccc1C)C[C@H]3N(C)CC2)N(C)CC4` has a reported log10(IC50) of 1.01

The compound listed as `COc1cc2c3cc1Oc1c(OC)c(OC)cc4c1[C@H](Cc1ccc(cc1)Oc1cc(ccc1C(=O)Nc1ccc(C(F)(F)F)cc1)C[C@H]3N(C)CC2)N(C)CC4` has a reported log10(IC50) of 1.02

GET /value?item= `CNC(=O)c1ccc2cc1Oc1ccc(cc1)C[C@H]1c3c(cc(OC)c(OC)c3Oc3cc4c(cc3OC)CCN(C)[C@@H]4C2)CCN1C` &field=log10(IC50) returns 1.82

* * *

Assay: Half life in male ICR mouse at 10 mg/kg, po measured upto 24 hrs by LC-MS/MS analysis
Type: ADME, organism-based
Conditions: in vivo
So I've got a bunch of compounds here, and I need their half-life values.
I only need the number, in h, no unit after it.

half-life in this record for `COc1cc2c3cc1Oc1c(OC)c(OC)cc4c1[C@H](Cc1ccc(cc1)Oc1cc(ccc1C(=O)NC1CC1)C[C@H]3N(C)CC2)N(C)CC4` : 16

Input COc1cc2c3cc1Oc1c(OC)c(OC)cc4c1[C@H](Cc1ccc(cc1)Oc1cc(ccc1O)C[C@H]3N(C)CC2)N(C)CC4 [AROMOLINE] . Output half-life: 6.39

half-life in this record for `COc1cc2c3cc1Oc1c(OC)c(OC)cc4c1[C@H](Cc1ccc(cc1)Oc1cc(ccc1C(N)=O)C[C@H]3N(C)CC2)N(C)CC4` : 12.5
